Listing: melting point of selected compounds

{"columns": ["Compound", "melting point"],
 "data": [
  ["CCOc1nn(-c2ccc(C(F)(F)F)cn2)cc1CCCOc1ccc(CCC(=O)O)cc1OC(C)C [Example 164]", "93 to 94 °C"],
  ["CCCc1nn(-c2ccc(C(F)(F)F)cn2)cc1CCCOc1ccccc1CCC(=O)O [Example 83]", "87 to 88 °C"],
  ["COc1ccc(CC(=O)O)c(OCCCc2cn(-c3ccc(C(F)(F)F)cn3)nc2C(C)C)c1 [Example 205]", "143 to 144 °C"],
  ["CCOc1nn(-c2ccc(C(F)(F)F)cn2)cc1CCCOc1ccc(CCC(=O)O)cc1OC [Example 150]", "131 to 132 °C"],
  ["CCCc1nn(-c2ccc(C(F)(F)F)cn2)cc1CCCCOc1nn(-c2ccccc2)cc1CC(=O)O [Example 66]", "114 to 115 °C"],
  ["CCCc1nn(-c2ccc(C(F)(F)F)cn2)cc1CCCOc1ccccc1CC(=O)O [Example 47]", "100 to 101 °C"],
  ["CCOc1cc(OCCCc2cn(-c3cc(C(F)(F)F)ccn3)nc2OCC)ccc1CCC(=O)OC [Example 285]", "79 to 81 °C"],
  ["COc1cccc(CC(=O)O)c1OCCCc1cn(-c2ncc(C(F)(F)F)cc2Cl)nc1C(C)C [Example 217]", "96 to 97 °C"]
]}

---

Listing: EC50 of selected compounds
- Experimental system: PPARγ-RXRα heterodimer (Homo sapiens, UniProt P37231)
- Sequence (P37231 29-505): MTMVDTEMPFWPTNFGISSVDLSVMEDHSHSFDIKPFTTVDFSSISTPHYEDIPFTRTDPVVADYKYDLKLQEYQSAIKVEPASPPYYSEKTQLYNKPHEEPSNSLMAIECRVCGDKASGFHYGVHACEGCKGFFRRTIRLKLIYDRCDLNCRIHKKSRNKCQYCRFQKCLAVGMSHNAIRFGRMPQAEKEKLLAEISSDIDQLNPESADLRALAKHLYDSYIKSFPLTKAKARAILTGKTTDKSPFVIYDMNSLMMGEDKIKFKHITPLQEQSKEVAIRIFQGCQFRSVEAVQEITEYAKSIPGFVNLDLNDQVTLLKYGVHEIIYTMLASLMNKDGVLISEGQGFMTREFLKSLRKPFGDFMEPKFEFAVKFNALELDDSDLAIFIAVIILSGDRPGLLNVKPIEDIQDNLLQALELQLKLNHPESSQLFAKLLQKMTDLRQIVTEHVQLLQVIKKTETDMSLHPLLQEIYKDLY
- Sequence (P19793 whole entry partner): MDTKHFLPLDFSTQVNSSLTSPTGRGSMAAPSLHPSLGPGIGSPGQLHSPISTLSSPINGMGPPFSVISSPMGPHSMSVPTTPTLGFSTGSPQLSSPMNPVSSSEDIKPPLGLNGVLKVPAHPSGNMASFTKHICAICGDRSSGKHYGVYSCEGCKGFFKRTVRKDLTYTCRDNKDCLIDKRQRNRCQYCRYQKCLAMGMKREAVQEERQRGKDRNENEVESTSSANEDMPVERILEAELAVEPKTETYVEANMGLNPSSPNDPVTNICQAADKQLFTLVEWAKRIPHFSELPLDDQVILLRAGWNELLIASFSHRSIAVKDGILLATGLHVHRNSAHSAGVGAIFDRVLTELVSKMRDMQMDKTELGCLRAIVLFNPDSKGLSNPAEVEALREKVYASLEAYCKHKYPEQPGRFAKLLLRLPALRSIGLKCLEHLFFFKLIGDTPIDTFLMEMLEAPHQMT
- Procedure text: PPARγ-RXRα heterodimer ligand activity, luciferase reporter in PPARγ:RXRα:4ERPP/CHO-K1 cells (Test Example 3)
- Run parameters: 18-48 hours, concentration for 50% of the maximum fold induction
Measure: EC50 (nM)

{"columns": ["Compound", "Experimental system", "Measured"],
 "data": [
  ["CCc1cccc(CC(=O)O)c1OCCCc1cn(-c2ccc(C(F)(F)F)nn2)nc1C(C)C [Example 245]", "PPARγ-RXRα heterodimer (Homo sapiens, UniProt P37231)", 19],
  ["CC(C)c1nn(-c2ccc(C(F)(F)F)cn2)cc1CCCOc1c(Br)cccc1CC(=O)O [Example 235]", "PPARγ-RXRα heterodimer (Homo sapiens, UniProt P37231)", 26],
  ["CC(C)c1nn(-c2ccc(C(F)(F)F)cn2)cc1CCCOc1cc(CCC(=O)O)n(-c2ccccc2)n1 [Example 24]", "PPARγ-RXRα heterodimer (Homo sapiens, UniProt P37231)", 38],
  ["CCC(CC)c1nn(-c2ccc(C(F)(F)F)cn2)cc1CCCOc1c(F)cccc1CC(=O)O [Example 214]", "PPARγ-RXRα heterodimer (Homo sapiens, UniProt P37231)", 18],
  ["COc1cccc(CC(=O)O)c1OCCCc1cn(-c2ccc(Br)cn2)nc1C(C)C [Example 218]", "PPARγ-RXRα heterodimer (Homo sapiens, UniProt P37231)", 51],
  ["COc1cccc(CC(=O)O)c1OCCCc1cn(-c2ccc(C(F)(F)F)cn2)nc1C(C)C [Example 181]", "PPARγ-RXRα heterodimer (Homo sapiens, UniProt P37231)", 75],
  ["CCOc1nn(-c2ccc(C(F)(F)F)cn2)cc1CCCOc1ccc(CCC(=O)O)c(OC(C)C)c1 [Example 116]", "PPARγ-RXRα heterodimer (Homo sapiens, UniProt P37231)", 82],
  ["CCCCc1nn(-c2ccc(C(F)(F)F)cn2)cc1CCCOc1c(CC(=O)O)cccc1OC [Example 197]", "PPARγ-RXRα heterodimer (Homo sapiens, UniProt P37231)", 22],
  ["CCOc1nn(-c2ccc(C(F)(F)F)cn2)cc1CCCCOc1ccccc1CC(=O)O [Example 137]", "PPARγ-RXRα heterodimer (Homo sapiens, UniProt P37231)", 35],
  ["CCOc1nn(-c2ccc(C(F)(F)F)cn2)cc1CCCOc1cccc(CC(=O)O)c1 [Example 30]", "PPARγ-RXRα heterodimer (Homo sapiens, UniProt P37231)", 210],
  ["COc1cccc(CC(=O)O)c1OCCCc1cn(-c2ccc(Cl)cn2)nc1C(C)C [Example 311]", "PPARγ-RXRα heterodimer (Homo sapiens, UniProt P37231)", 100]
]}

---

{"columns": ["Compound", "melting point"],
 "data": [
  ["CCOc1cc(OCCCc2cn(-c3ccc(C(F)(F)F)cn3)nc2OC)ccc1CCC(=O)O [Example 152]", "145 to 146 °C"],
  ["CCCc1nn(-c2ccc(C(F)(F)F)cn2)cc1CCCCn1cc(CCC(=O)O)c(-c2ccc(F)cc2)n1 [Example 77]", "119 to 121 °C"],
  ["CCCc1nn(-c2ccc(C(F)(F)F)cn2)cc1CCCOc1ccc(CC(=O)O)cc1 [Example 46]", "101 to 102 °C"],
  ["CC(C)c1nn(-c2ccc(C(F)(F)F)cn2)cc1CCCOc1cc(CCC(=O)O)n(C2CCCCC2)n1 [Example 262]", "166 to 167 °C"],
  ["CCC(CC)c1nn(-c2ccc(C(F)(F)F)cn2)cc1CCCOc1ccccc1CC(=O)O [Example 215]", "65 to 66 °C"],
  ["COc1cccc(CC(=O)O)c1OCCCc1cn(-c2ccc(C(F)(F)F)cn2)nc1C1CCCCC1 [Example 307]", "140 to 141 °C"],
  ["COc1cccc(CC(=O)O)c1OCCCc1cn(-c2ccc(NC(C)=O)cn2)nc1C(C)C [Example 265]", "158 to 159 °C"],
  ["CCOc1nn(-c2ccc(C(F)(F)F)cn2)cc1CCCOc1ccc(CCC(=O)O)c(OC(C)C)c1 [Example 116]", "104 to 105 °C"],
  ["CCCc1nn(-c2ccc(C(F)(F)F)cn2)cc1COc1ccc(CCC(=O)O)c(OC)c1 [Example 120]", "153 to 154 °C"],
  ["CC(C)c1nn(-c2ccc(C(F)(F)F)cn2)cc1CCCCOc1cccc(OC(C)(C)C(=O)O)c1 [Example 54]", "81 to 82 °C"],
  ["CCc1ccc(OC(C)(C)C(=O)O)cc1OCCCc1cn(-c2ccc(C(F)(F)F)cn2)nc1C(C)C [Example 377]", "115 to 116 °C"],
  ["COc1cccc(CC(=O)O)c1OCCCc1cn(-c2ncc(Cl)cc2Cl)nc1C(C)C [Example 336]", "105 to 106 °C"],
  ["CCCc1nn(-c2ccc(C(F)(F)F)cn2)cc1CCCOc1c(C)cccc1CC(=O)O [Example 319]", "134 to 135 °C"],
  ["CCc1cccc(CC(=O)O)c1OCCCc1cn(-c2ccc(C(F)(F)F)nn2)nc1C(CC)CC [Example 341]", "93 to 94 °C"],
  ["Cc1nn(-c2ccc(C(F)(F)F)cn2)cc1COc1cccc(OC(C)(C)C(=O)O)c1 [Example 32]", "152 to 153 °C"],
  ["Cc1cccc(CC(=O)O)c1OCCCc1cn(-c2ccc(C(F)(F)F)cn2)nc1C(C)C [Example 315]", "159 to 160 °C"],
  ["CCCc1cn(CC(=O)O)nc1OCCCc1cn(-c2ccc(C(F)(F)F)cn2)nc1OCC [Example 255]", "134 to 135 °C"],
  ["CCOc1nn(-c2ccc(C(F)(F)F)cn2)cc1CCCCOc1ccccc1CC(=O)O [Example 137]", "109 to 110 °C"],
  ["CC(C)c1nn(-c2ccc(C(F)(F)F)cn2)cc1CCCOc1nn(C)cc1CCC(=O)O [Example 310]", "124 to 125 °C"],
  ["COc1cc(CC(=O)O)ccc1OCCCc1cn(-c2ccc(C(F)(F)F)cn2)nc1C(C)C [Example 278]", "134 to 135 °C"],
  ["CCC(CC)c1nn(-c2ccc(C(F)(F)F)nn2)cc1CCCOc1c(CC(=O)O)cccc1OC [Example 339]", "81 to 82 °C"],
  ["CCCCc1nn(-c2ccc(C(F)(F)F)cn2)cc1CCCOc1ccccc1CC(=O)O [Example 198]", "106 to 107 °C"],
  ["CCCOc1cc(CCC(=O)O)ccc1OCCCc1cn(-c2ccc(C(F)(F)F)cn2)nc1OCC [Example 163]", "106 to 107 °C"],
  ["Cn1ncc(CC(=O)O)c1OCCCc1cn(-c2ccc(C(F)(F)F)cn2)nc1C1CCCCC1 [Example 325]", "137 to 138 °C"],
  ["CCCC(C)c1nn(-c2ccc(C(F)(F)F)cn2)cc1CCCOc1c(CC(=O)O)cccc1OC (centres unmarked) [Example 220]", "107 to 108 °C"],
  ["CCCc1nn(-c2ccc(C(F)(F)F)cn2)cc1CCCOc1nn(-c2ccccc2)cc1CC(=O)O [Example 67]", "123 to 124 °C"],
  ["COc1cccc(CC(=O)O)c1OCCCc1cn(-c2cccc(C(F)(F)F)n2)nc1C(C)C [Example 365]", "95 to 97 °C"],
  ["O=C(O)c1ccc(OCCCCc2cc(-c3ccc(C(F)(F)F)cc3)no2)cc1 [Example 12]", "170 to 171 °C"],
  ["CCOc1nn(-c2ccc(C(F)(F)F)cn2)cc1CCCOc1cccc(CC(=O)O)c1F [Example 186]", "120 to 121 °C"],
  ["CCOc1cc(OCCCc2cn(-c3cc(C(F)(F)F)ccn3)nc2OCC)ccc1CCC(=O)O [Example 298]", "119 to 120 °C"],
  ["COc1cccc(CC(=O)O)c1OCCCc1cn(-c2cc(C(F)(F)F)ccn2)nc1C(C)C [Example 363]", "127 to 128 °C"],
  ["CCOc1cc(OCCCc2cn(-c3ccc(C(F)(F)F)cn3)nc2-c2ccccc2)ccc1CCC(=O)O [Example 99]", "135 to 136 °C"]
]}
